# run description: Volume of distribution at steady state in Sprague-Dawley rat at 3 mg/kg, po and 1 mg/kg, iv
# Type: ADME, organism-based
# experimental setup: in vivo, read-out: Vdss
property: Vd (L/kg)
Reply with just the number (in L/kg).

Vd lookup needed for `C[C@@H]1NC(c2ccc(=O)n(C(F)F)c2)=N[C@@]1(c1ccc(F)cc1)c1ccc(F)nc1` , thanks.
2.6

---

# run description: Drug level in mdr1a deficient CF1 mouse plasma at 10 mg/kg, po after 2 hrs
# Type: ADME, organism-based
# Parameters: dose 10 mg/kg, route oral
property: concentration at 2 h (µM)
Reply with just the number (in µM).

concentration at 2 h lookup needed for `C[C@@H]1NC(c2ccc(=O)n(C(F)F)c2)=N[C@@]1(c1ccc(F)cc1)c1ccc(F)nc1` , thanks.
7.01
